Published IC50 for Cytochrome P450 2C19 (Homo sapiens, UniProt P33261), assembled from different documents, is shown next.
assay.metric: IC50

[[record]]
compound = "Cc1cc(C#N)cnc1C(=O)Nc1ccc(F)c([C@@]2(C)N=C(N)O[C@H](C3(F)CC3)[C@@H]2F)c1"
val = "≥ 20 µM"

[[record]]
compound = "COc1cnc(C(=O)Nc2ccc(F)c([C@@]3(C)N=C(N)O[C@H]([C@@H](C)F)[C@@H]3F)c2)cn1"
val = "≥ 20 µM"

[[record]]
compound = "Fc1nc(NC2CCC(F)(F)CC2)ccc1Cc1c[nH]c2ncnc(NC3CC3)c12"
val = "> 10 µM"

[[record]]
compound = "CC(C)C(O)(c1ccncn1)c1ccc2cc(OC(F)F)ccc2n1 (centres unmarked)"
val = "8.7 µM"

[[record]]
compound = "Clc1ccc(Nc2nnc(Nc3ccc4ncsc4c3)c3sccc23)cc1"
val = "9.9 µM"

[[record]]
compound = "CNC(=O)c1cc(COc2nnc(Nc3ccc4c(c3)OCC4)c3ccoc23)ccn1"
val = "> 20 µM"

[[record]]
compound = "CCCCOCCOc1ccc(-c2ccc(OCC)c(/C=C/C(=O)Nc3ccc([S@+]([O-])Cc4c(C)ncn4CC)cc3)c2)cc1"
val = "> 50 µM"

[[record]]
compound = "C[C@H](c1ccc(F)cc1)n1cncc1CN1CCN(S(=O)(=O)c2cnc(N3CCC(N)(CO)CC3)s2)CC1"
val = "> 10 µM"

[[record]]
compound = "COc1ccc(Nc2ccc(C(=O)c3c[nH]c4ncnc(NCC(F)(F)F)c34)c(F)n2)cn1"
val = "5 to 10 µM"

[[record]]
compound = "COc1cnc(C(=O)Nc2ccc(F)c([C@@]3(C)N=C(N)O[C@H](C(F)(F)C4CC4)[C@@H]3F)c2)cn1"
val = "≥ 20 µM"

[[record]]
compound = "CNc1ncnc2[nH]cc(C(=O)c3ccc(Nc4ccc(C(F)(F)F)nc4)nc3F)c12"
val = "< 5 µM"


====

Published IC50 for Cytochrome P450 2C19 (Homo sapiens), assembled from different documents, is shown next.
assay.metric: IC50

[[record]]
molecule = "CS(=O)(=O)CC(=O)Nc1c(-c2ccc(F)cc2)nn2c1C(=O)N[C@@]1(CCOc3cc(OCC(F)(F)F)ccc31)C2"
study_target = "Cytochrome P450 2C19 (Homo sapiens)"
val = "> 20 µM"

[[record]]
molecule = "CCc1nnc2n1CCN(C(=O)c1cncn1[C@@H](C)c1ccccc1-c1ccc(F)cc1)C2"
study_target = "Cytochrome P450 2C19 (Homo sapiens)"
val = "> 10 µM"

[[record]]
molecule = "COc1cc2c(NC3CCOCC3)nc(N3CCN(C)CC3)nc2cc1OCCCN1CCCC1"
study_target = "Cytochrome P450 2C19 (Homo sapiens)"
val = "> 100 µM"

[[record]]
molecule = "CCc1ccc(Nc2ccc(C(=O)c3c[nH]c4ncnc(NCCCOC)c34)c(F)n2)cn1"
study_target = "Cytochrome P450 2C19 (Homo sapiens)"
val = "< 5 µM"

[[record]]
molecule = "COc1ccccc1-c1ccccc1[C@H](C)n1cncc1C(=O)N1CCC2NCCO[C@@H]2C1 (some centres unmarked)"
study_target = "Cytochrome P450 2C19 (Homo sapiens)"
val = "> 10 µM"

